Target: recombinant HMG1 produced in E. coli as a calmodulin binding protein (CBP) fusion (human)
Sequence (P09429 whole entry, the tested form may be a part): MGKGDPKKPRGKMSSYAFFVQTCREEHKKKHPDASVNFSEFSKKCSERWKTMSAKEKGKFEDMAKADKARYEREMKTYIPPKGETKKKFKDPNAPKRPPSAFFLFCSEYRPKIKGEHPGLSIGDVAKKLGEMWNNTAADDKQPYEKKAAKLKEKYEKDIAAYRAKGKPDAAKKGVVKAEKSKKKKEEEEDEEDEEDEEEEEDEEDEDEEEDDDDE
Test: cell-based or functional assay
PROPERTY: IC50 TNF-α (ng/mL)
Entry rule: numbers only, all in ng/mL.

>  <BINDER>
human anti-HMG1 antibody G12 (antibody, IgG1, V domains shown, full length IgG1 made from a human Fab phage clone) VH: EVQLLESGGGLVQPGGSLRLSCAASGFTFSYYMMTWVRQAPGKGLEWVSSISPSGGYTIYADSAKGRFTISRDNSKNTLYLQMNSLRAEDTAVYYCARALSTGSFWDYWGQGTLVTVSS VL: DIQMTQSPGTLSLSPGERATLSCRASESLTSTYVAWYQHKPGQAPRLLIHGGSTRATGIPVRFSGSGSGTDFTLTIATLEPEDFAVYYCQQYGSSPYTFGQGTKLEIK

>  <MEASUREMENT>
796

$$$$
>  <BINDER>
human anti-HMG1 antibody S14 (antibody, IgG1, V domains shown, full length IgG1 made from a human Fab phage clone) VH: EVQLLESGGGLVQPGGSLRLSCAASGFTFSWYETGWVRQAPGKGLEWVSGISPSGGYTQYADSVKGRFTISRDNSKNTLYLQMNSLRAEDTAVYYCARSGVGATKIFDYWGQGTLVTVSS VL: DIQMTQSPSSLSASVGDRVTIICRANERINTYLNWYQQKPGKAPKLLISGTSSLESGVPSRFSGSGSGTEFTLSISSLQPEDFASYYCQQSYSSPYTFGQGTNLEIR

>  <MEASUREMENT>
66.2

$$$$
>  <BINDER>
human anti-HMG1 antibody G20 (antibody, IgG1, V domains shown, full length IgG1 made from a human Fab phage clone) VH: EVQLLESGGGLVQPGGSLRLSCAASGFTFSWYDMFWVRQAPGKGLEWVSWISPSGGYTKYADSVKGRFTISRDNSKNTLYLQMNSLRAEDTAMYYCARSGLDYYDSSGYLDAFDIWGQGTMVTVSS VL: DIQMTQSPSSVSASVGDRVTITCRASQDVSIWLAWYQQKPGKAPKLLIFGASRLQSGVPSRFSGSRSGADFTLTIDSVQPEDFASYYCQQADSFPLTFGGGTKVEIK

>  <MEASUREMENT>
598

$$$$
>  <BINDER>
human anti-HMG1 antibody S16 (antibody, IgG1, V domains shown, full length IgG1 made from a human Fab phage clone; also called ATCC PTA-6259) VH: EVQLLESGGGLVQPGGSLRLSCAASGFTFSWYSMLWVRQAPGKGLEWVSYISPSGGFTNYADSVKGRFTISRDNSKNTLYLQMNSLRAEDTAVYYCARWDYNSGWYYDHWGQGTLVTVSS VL: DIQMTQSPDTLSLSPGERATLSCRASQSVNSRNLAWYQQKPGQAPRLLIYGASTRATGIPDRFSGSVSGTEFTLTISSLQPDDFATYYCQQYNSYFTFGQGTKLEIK

>  <MEASUREMENT>
1440

$$$$
>  <BINDER>
human anti-HMG1 antibody G2 (antibody, IgG1, V domains shown, full length IgG1 made from a human Fab phage clone) VH: EVQLLESGGGLVQPGGSLRLSCAASGFTFSWYKMQWVRQAPGKGLEWVSGISPSGGSTAYADSVKGRFTISRDNSKNTLYLQMNSLRAEDTAVYYCAKMGLFNTGNSYVDYWGQGTLVTVSS VL: AQSELTQPPSVSEAPGQRVTISCSGSTSNIGNNAVIWYQQLPGKAPKLLIYYDDLLPSGVSDRFSGSKSGTSGSLAISGLQSEDEADYYCASWDDNLNGPLFGGGTKLTVL

>  <MEASUREMENT>
1350

$$$$
>  <BINDER>
human anti-HMG1 antibody G9 (antibody, IgG1, V domains shown, full length IgG1 made from a human Fab phage clone) VH: EVQLLESGGGLVQPGGSLRLSCAASGFTFSSYDMFWVRQAPGKGLEWVSRISPSGGYTYYADSVKGRFTISRDNSKNTLYLQMNSLRAEDTAVYYCARLRYFDSRGYAFDIWGQGTMVTVSS VL: DIQMTQSPGTLSLSPGERATLSCRASQSVRSSYLAWYQQKPGQAPRLLIYGASTRATGIPDRFSGSGSGTDFTLTISRLEPEDFAVYYCQQYGTSRWTFGQGTKVEIK

>  <MEASUREMENT>
248

$$$$

Return reported IC50 TNF-α; argument: human anti-HMG1 antibody G4 (antibody, IgG1, V domains shown, full length IgG1 made from a human Fab phage clone; also called ATCC PTA-6258) VH: EVQLLESGGGLVQPGGSLRLSCAASGFTFSWYDMTWVRQAPGKGLEWVSSISPSGGYTKYADSVKGRFTISRDNSKNTLYLQMNSLRAEDTAVYYCTTEFYDYLDVWGKGTTVTVSS VL: DIQMTQSPGTLSLSPGEGATLSCRASQSVSSTYLAWYQQKPGQAPRLLIYEASKRATGTPARFSGSGSGTDFTLSISSLEPEDFAVYYCQHRHNWPPQWTFGQGTKVEVK
5510

And for human anti-HMG1 antibody S10 (antibody, IgG1, V domains shown, full length IgG1 made from a human Fab phage clone) VH: EVQLLESGGGLVQPGGSLRLSCAASGFTFSWYDMWWVRQAPGKGLEWVSWIVPSGGITAYADSVKGRFTISRDNSKNTLYLQMNSLRAEDTATYYCARGNYGPSPFDYWGQGTLVTVSS VL: DIQMTQSPGTLSLSPGERATLSCRATQSVRKNFLAWYQQKPGQAPRLLIYDASSRATGIPDRFSGSGSGTDFTLTISRLEPEDFAVYYCQQYGNSPIIFGQGTRLEIK ?
875
